# Test system: Escherichia coli
# EXPERIMENT_DESCRIPTION: Antibacterial activity Escherichia coli ATCC 25922 assessed as inhibition of bacterial growth incubated for 24 hrs by Muller hinton broth based dilution assay
# Type: functional
OBSERVED_PROPERTY: MIC (µg/mL)
One number for each entry, in µg/mL.

- Cn1c2ccccc2c2c(OCC(O)CN(Cc3ccccn3)Cc3ccccn3)cccc21 (stereo unspecified): 50
- CC(C)=CCn1c2ccccc2c2c(OCC(O)CN(C)C)cccc21 (stereo unspecified): 25

Next item in the queue.
Q: Provide MIC value for the following compound: `O=C(O)c1cn(C2CC2)c2cc(N3CCNCC3)c(F)cc2c1=O`
Result: 0.049

====

Give MIC for every item shown.
# Test system: Pseudomonas aeruginosa
# EXPERIMENT_DESCRIPTION: Antibacterial activity Pseudomonas aeruginosa ATCC 9027 assessed as inhibition of bacterial growth incubated for 24 hrs in the presence of 12.5 ug/mL Zn2+ by Muller hinton broth based dilution assay
# Type: functional

• OC(COc1cccc2c1c1ccccc1n2CCCC(F)(F)F)CN(Cc1ccccn1)Cc1ccccn1 (stereo not drawn) = 12.5 µg/mL
• CC(C)=CCn1c2ccccc2c2c(OCC(O)CN(C)C)cccc21 (stereo not drawn) = > 50 µg/mL
• CCCCCn1c2ccccc2c2c(OCC(O)CN(Cc3ccccn3)Cc3ccccn3)cccc21 (stereo not drawn) = 6.25 µg/mL
• CCCCCCCn1c2ccccc2c2c(OCC(O)CN(Cc3ccccn3)Cc3ccccn3)cccc21 (stereo not drawn) = > 50 µg/mL
• O=C(O)c1cn(C2CC2)c2cc(N3CCNCC3)c(F)cc2c1=O [CIPROFLOXACIN] = 0.195 µg/mL
• CCCCCCCCCn1c2ccccc2c2c(OCC(O)CN(Cc3ccccn3)Cc3ccccn3)cccc21 (stereo not drawn) = > 50 µg/mL
• OC(COc1cccc2[nH]c3ccccc3c12)CN(Cc1ccccn1)Cc1ccccn1 (stereo not drawn) = 12.5 µg/mL

Kindly consider the entry below.
Q: Look up MIC of CC(C)=CCn1c2ccccc2c2c(OCC(O)CNCc3ccccn3)cccc21 (stereo not drawn) and report it.
Result: > 50 µg/mL

====

Please go through the items and note down their MIC.
# Test system: Staphylococcus aureus
# EXPERIMENT_DESCRIPTION: Antibacterial activity against Methicillin-resistant Staphylococcus aureus NCTC10442 assessed as inhibition of bacterial growth incubated for 24 hrs in the presence of 12.5 ug/mL Zn2+ by Muller hinton broth based dilution assay
# Type: functional
Answers are plain numbers, in µg/mL.

A selection of reference data follows.
- CCCn1c2ccccc2c2c(OCC(O)CN(Cc3ccccn3)Cc3ccccn3)cccc21 (stereo not drawn): 1.56
- CC(C)=CCn1c2ccccc2c2c(OCC(O)CN(Cc3ccccn3)Cc3ccccn3)cccc21 (stereo not drawn): 1.56
- CCN(CC)CC(O)COc1cccc2c1c1ccccc1n2CC=C(C)C (stereo not drawn): 6.25
- OC(COc1cccc2[nH]c3ccccc3c12)CN(Cc1ccccn1)Cc1ccccn1 (stereo not drawn): 12.5
- CCCCCCCCCn1c2ccccc2c2c(OCC(O)CN(Cc3ccccn3)Cc3ccccn3)cccc21 (stereo not drawn): 6.25
- O=C(O)c1cn(C2CC2)c2cc(N3CCNCC3)c(F)cc2c1=O [CIPROFLOXACIN]: 0.39
- OC(COc1cccc2c1c1ccccc1n2CCCC(F)(F)F)CN(Cc1ccccn1)Cc1ccccn1 (stereo not drawn): 0.78
- Cn1c2ccccc2c2c(OCC(O)CN(Cc3ccccn3)Cc3ccccn3)cccc21 (stereo not drawn): 6.25

Parameter requested: MIC. Apply to each item below.
1. CCCCCCCn1c2ccccc2c2c(OCC(O)CN(Cc3ccccn3)Cc3ccccn3)cccc21 (stereo not drawn)
2. CC(C)=CCn1c2ccccc2c2c(OCC(O)CN(C)C)cccc21 (stereo not drawn)
3. CN[C@H](CC(C)C)C(=O)N[C@H]1C(=O)N[C@@H](CC(N)=O)C(=O)N[C@H]2C(=O)N[C@H]3C(=O)N[C@H](C(=O)N[C@H](C(=O)O)c4cc(O)cc(O)c4-c4cc3ccc4O)[C@H](O)c3ccc(c(Cl)c3)Oc3cc2cc(c3O[C@@H]2O[C@H](CO)[C@@H](O)[C@H](O)[C@H]2O[C@H]2C[C@](C)(N)[C@H](O)[C@H](C)O2)Oc2ccc(cc2Cl)[C@H]1O [VANCOMYCIN]

Result:
1: 1.56; 2: 6.25; 3: 1.56

For each of the compounds below, note its MIC.
1. CCCCCn1c2ccccc2c2c(OCC(O)CN(Cc3ccccn3)Cc3ccccn3)cccc21 (stereo not drawn)
2. CC(C)=CCn1c2ccccc2c2c(OCC(O)CNCc3ccccn3)cccc21 (stereo not drawn)

Result:
1. 0.78
2. 6.25

====

Task for the reader: assign each of the following compounds its reported MIC.
# Tested on: Pseudomonas aeruginosa
# EXPERIMENT_DESCRIPTION: Antibacterial activity Pseudomonas aeruginosa ATCC 9027 assessed as inhibition of bacterial growth incubated for 24 hrs in the presence of 12.5 ug/mL Zn2+ by Muller hinton broth based dilution assay
# Type: functional
One number for each entry, in µg/mL.

* CCCn1c2ccccc2c2c(OCC(O)CN(Cc3ccccn3)Cc3ccccn3)cccc21 (stereo not given) | 6.25
* CC(C)=CCn1c2ccccc2c2c(OCC(O)CN(Cc3ccccn3)Cc3ccccn3)cccc21 (stereo not given) | 3.12

Kindly review the next compound as well.
Q: Look up and state reported MIC for Cn1c2ccccc2c2c(OCC(O)CN(Cc3ccccn3)Cc3ccccn3)cccc21 (stereo not given)
Result: 12.5

====

# Test system: Staphylococcus aureus
# EXPERIMENT_DESCRIPTION: Antibacterial activity against Methicillin-resistant Staphylococcus aureus N315 assessed as inhibition of bacterial growth incubated for 24 hrs by Muller hinton broth based dilution assay
# Assay type: functional
OBSERVED_PROPERTY: MIC (µg/mL)
Give bare numbers, in µg/mL.

Worked set:
• OC(COc1cccc2c1c1ccccc1n2CCCC(F)(F)F)CN(Cc1ccccn1)Cc1ccccn1 (stereo unspecified) = 3.12
• CCCCCn1c2ccccc2c2c(OCC(O)CN(Cc3ccccn3)Cc3ccccn3)cccc21 (stereo unspecified) = 1.56
• Cn1c2ccccc2c2c(OCC(O)CN(Cc3ccccn3)Cc3ccccn3)cccc21 (stereo unspecified) = 6.25
• OC(COc1cccc2[nH]c3ccccc3c12)CN(Cc1ccccn1)Cc1ccccn1 (stereo unspecified) = 25
• CC(C)=CCn1c2ccccc2c2c(OCC(O)CNCc3ccccn3)cccc21 (stereo unspecified) = 6.25

Next, consider the following compound.
Q: Consider the compound CCN(CC)CC(O)COc1cccc2c1c1ccccc1n2CC=C(C)C (stereo unspecified) . State its measured MIC.
Result: 6.25

====

What MIC was measured for each of the following?
# Tested on: Acinetobacter baumannii
# EXPERIMENT_DESCRIPTION: Antibacterial activity against Acinetobacter baumannii R2889 assessed as inhIbition of bacterial growth incubated for 24 hrs in the presence of 12.5 ug/mL Zn2+ by Muller hinton broth based dilution assay
# Assay type: functional

• CN[C@H](CC(C)C)C(=O)N[C@H]1C(=O)N[C@@H](CC(N)=O)C(=O)N[C@H]2C(=O)N[C@H]3C(=O)N[C@H](C(=O)N[C@H](C(=O)O)c4cc(O)cc(O)c4-c4cc3ccc4O)[C@H](O)c3ccc(c(Cl)c3)Oc3cc2cc(c3O[C@@H]2O[C@H](CO)[C@@H](O)[C@H](O)[C@H]2O[C@H]2C[C@](C)(N)[C@H](O)[C@H](C)O2)Oc2ccc(cc2Cl)[C@H]1O [VANCOMYCIN] = > 50 µg/mL

Q: Specify reported MIC for the molecule shown: CCCCCCCCCn1c2ccccc2c2c(OCC(O)CN(Cc3ccccn3)Cc3ccccn3)cccc21 (configuration not stated)
Result: > 50 µg/mL

====

# Test system: Acinetobacter baumannii
# EXPERIMENT_DESCRIPTION: Antibacterial activity against Acinetobacter baumannii ATCC 17978 assessed as inhIbition of bacterial growth incubated for 24 hrs by Muller hinton broth based dilution assay
# Format: functional
OBSERVED_PROPERTY: MIC (µg/mL)
Give bare numbers, in µg/mL.

- CC(C)=CCn1c2ccccc2c2c(OCC(O)CN(C)C)cccc21 (stereo not given): 12.5
- CCN(CC)CC(O)COc1cccc2c1c1ccccc1n2CC=C(C)C (stereo not given): 50
- O=C(O)c1cn(C2CC2)c2cc(N3CCNCC3)c(F)cc2c1=O [CIPROFLOXACIN]: 0.39
- OC(COc1cccc2c1c1ccccc1n2CCCC(F)(F)F)CN(Cc1ccccn1)Cc1ccccn1 (stereo not given): 6.25
- CN[C@H](CC(C)C)C(=O)N[C@H]1C(=O)N[C@@H](CC(N)=O)C(=O)N[C@H]2C(=O)N[C@H]3C(=O)N[C@H](C(=O)N[C@H](C(=O)O)c4cc(O)cc(O)c4-c4cc3ccc4O)[C@H](O)c3ccc(c(Cl)c3)Oc3cc2cc(c3O[C@@H]2O[C@H](CO)[C@@H](O)[C@H](O)[C@H]2O[C@H]2C[C@](C)(N)[C@H](O)[C@H](C)O2)Oc2ccc(cc2Cl)[C@H]1O [VANCOMYCIN]: 50

Below are 4 molecules. Give each one its MIC.
1. CCCn1c2ccccc2c2c(OCC(O)CN(Cc3ccccn3)Cc3ccccn3)cccc21 (stereo not given)
2. Cn1c2ccccc2c2c(OCC(O)CN(Cc3ccccn3)Cc3ccccn3)cccc21 (stereo not given)
3. OC(COc1cccc2[nH]c3ccccc3c12)CN(Cc1ccccn1)Cc1ccccn1 (stereo not given)
4. CCCCCn1c2ccccc2c2c(OCC(O)CN(Cc3ccccn3)Cc3ccccn3)cccc21 (stereo not given)

Result:
1: 6.25; 2: 12.5; 3: 50; 4: 3.12
